Just for reference, paper PMC8451604 is where these values come from.

# protocol_summary: Phase solubility study of Frax with CDs
# Type: physicochemical
# test_settings: 350 mM G2-β-CD aqueous solution, aqueous with cosolvent or surfactant or cyclodextrin, thermodynamic from solid; with 350 mM G2-β-CD, 37 °C
quantity_name: solubility at 72 h (mg/mL)

{"columns": ["compound", "unit_descriptor", "measurement"],
 "data": [
  ["CC1=C2C(=O)O[C@@H](c3ccoc3)[C@]2(C)CCC1 [Frax, Fraxinellone]", "mg/mL", 12.3]
]}

###

# protocol_summary: Oral bioavailability / pharmacokinetic study
# Parameters: species or system Male Wistar rats
# test_settings: male, Wistar, rat, in vivo

{"columns": ["molecule", "bioavailability [%]"],
 "data": [
  ["CC1=C2C(=O)O[C@@H](c3ccoc3)[C@]2(C)CCC1 [Frax, Fraxinellone]", 0.5]
]}
